Assay: sensitizers of A549 cells to miR-34 induction, primary screen, imaging, A549 dox-inducible miR-34, nuclei and caspase counts (AID 1347080)
Details: A549 miR-34 inducible, Hoechst nuclei count, 48 h; measured here: total cells with miR-34 induction; stronger effect = lower value
Numbered stars: 1 amine (or outer) side, 2 acyl side, 3 side chain; on linkers, the order of the positions; unused ones are H or OH. Bridge positions count the residues as written; N and C are the ends. Square brackets hold non-standard residues; d marks the D form. Peptide text beside a SMILES is read from it. I, II: the chains in the order shown. Actinocin(9to1) = Cc1c2oc3c(C)ccc(C(=O)[*:1])c3nc-2c(C(=O)[*:2])c(N)c1=O; NMeV = CN[CH](C(=O)O)C(C)C; Sar = CNCC(=O)O
reported.metric: cell count
Keep it simple and answer with nothing but the number.

// worked examples, cell count included
C[C@@H]1CC2C3C[C@H](F)C4=CC(=O)C=C[C@]4(C)[C@@]3(F)[C@@H](O)C[C@]2(C)[C@@]1(O)C(=O)CO (stereo partly drawn) :: 7830
CO[C@H]1/C=C/O[C@@]2(C)Oc3c(C)c(O)c4c(O)c(c(C=NN5CCN(C6CCCC6)CC5)c(O)c4c3C2=O)NC(=O)/C(C)=C\C=C\[C@H](C)[C@H](O)[C@@H](C)[C@@H](O)[C@@H](C)[C@H](OC(C)=O)[C@@H]1C :: 8010
CCOC(=O)OC(C)OC(=O)C1N2C(=O)C(NC(=O)[C@H](N)c3ccccc3)C2SC1(C)C (stereo partly drawn) :: 11600
OC[C@@H](O)[C@H](O)[C@@H](O)[C@H](O)CO :: 7670
CC12CCC3c4ccc(O)cc4CCC3C1C[C@H](O)[C@@H]2O (stereo partly drawn) :: 8330

INPUT: Output cell count of O=c1ncccn1[C@@H]1O[C@H](CO)[C@@H](O)[C@H]1O
OUTPUT: 7460

INPUT: Output cell count of CCN(c1ccccc1)c1cc(NC)[n+](C)c(C)n1
OUTPUT: 7990

INPUT: Output cell count of Cc1c2oc3c(C)ccc(C(=O)NC4C(=O)NC(C(C)C)C(=O)N5CCCC5C(=O)N(C)CC(=O)N(C)C(C(C)C)C(=O)OC4C)c3nc-2c(C(=O)NC2C(=O)NC(C(C)C)C(=O)N3CCCC3C(=O)N(C)CC(=O)N(C)C(C(C)C)C(=O)OC2C)c(N)c1=O (stereo not drawn) (I: TVP[Sar][NMeV] / II: TVP[Sar][NMeV]; ester I:1-I:C, II:1-II:C; linker I:N-II:N via Actinocin(9to1); configuration not given here)
OUTPUT: 2640

* * *

Target: L-lactate dehydrogenase (Plasmodium falciparum (isolate CDC / Honduras)) (UniProt Q27743)
Sequence (Q27743 whole entry, looked up): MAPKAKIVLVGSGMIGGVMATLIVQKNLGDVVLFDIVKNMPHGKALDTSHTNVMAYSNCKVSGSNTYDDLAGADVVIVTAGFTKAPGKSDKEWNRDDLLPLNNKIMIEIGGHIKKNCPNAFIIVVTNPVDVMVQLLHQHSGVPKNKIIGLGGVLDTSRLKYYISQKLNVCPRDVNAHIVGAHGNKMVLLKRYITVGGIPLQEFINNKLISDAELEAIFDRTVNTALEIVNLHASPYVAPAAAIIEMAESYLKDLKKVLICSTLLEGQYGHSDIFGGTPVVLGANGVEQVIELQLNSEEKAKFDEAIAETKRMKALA
Assay: PfLDH activity inhibition – cell lysate, 3D7 strain, counter-screen for P. falciparum growth inhibition project (AID 2304);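 also: 0% = vehicle and 100% = reference inhibitor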
Settings: P. falciparum 3D7 crude extract, LDH APAD/NBT absorbance; at 2 µM; stronger effect = higher value
reported.metric: inhibition (%)
Reply with just the number (in %).

INPUT: Report inhibition from L-lactate dehydrogenase (Plasmodium falciparum (isolate CDC / Honduras)) (UniProt Q27743) testing of CCNCCCC(C)Nc1ccnc2cc(Cl)ccc12 (configuration not stated)
OUTPUT: 0

INPUT: Report inhibition from L-lactate dehydrogenase (Plasmodium falciparum (isolate CDC / Honduras)) (UniProt Q27743) testing of Cc1[nH]c(C)c(-c2ccc(Oc3ccc(Cl)c(Cl)c3)cc2)c(=O)c1Br
OUTPUT: -1

INPUT: Report inhibition from L-lactate dehydrogenase (Plasmodium falciparum (isolate CDC / Honduras)) (UniProt Q27743) testing of CN(C)CC1CCCN1Cc1ccccc1-c1cnn(C)c(=O)c1Oc1ccccc1F (configuration not stated)
OUTPUT: -1

INPUT: Report inhibition from L-lactate dehydrogenase (Plasmodium falciparum (isolate CDC / Honduras)) (UniProt Q27743) testing of COc1ccc2c(c1CNCCCCCCNCc1c(OC)ccc3c1CCCC3)CCCC2
OUTPUT: 6

INPUT: Report inhibition from L-lactate dehydrogenase (Plasmodium falciparum (isolate CDC / Honduras)) (UniProt Q27743) testing of O=C(Nc1ccc(-c2nc3cc4ccccc4cc3[nH]2)cc1)c1cccc(Br)c1
OUTPUT: -5

INPUT: Report inhibition from L-lactate dehydrogenase (Plasmodium falciparum (isolate CDC / Honduras)) (UniProt Q27743) testing of CC(=O)Oc1c(Cl)c(C)nc(C)c1-c1ccc(Oc2ccc(OC(F)(F)F)cc2)cc1
OUTPUT: 5

* * *

Test: HepG2 cytotoxicity, primary screen, cytotoxicity control for P. falciparum antimalarial project, cell-based, ATP luminescence (AID 2303);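 also: 0% = DMSO wells and 100% = digitonin-killed cells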
Settings: HepG2 viability, 24-48 h, at 10 µM
The source made the active and inactive calls.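 How the source made its calls: active means inhibition above 50%; inactive means the rest.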
The reply should be one of these categories: 1 = active, -1 = inactive

Before answering, review these 5 worked examples.
Cc1cccc(C)c1NC1=NC(=S)N(c2cccc(Cl)c2)C12CCC(C(C)(C)C)CC2 (stereo not drawn) :: -1
Clc1ccccc1C=NNc1ccnc2ccccc12 :: -1
O=C(c1ccccc1)N1CCC(CN2CCOC(c3ccccc3)(c3ccccc3)C2)CC1 :: -1
CC(=O)N1N=C(c2ccc(F)cc2)Sc2c1nc(C1CCCCC1)n2C(C)=O :: -1
Nc1nc2ccc(CNc3ccc(C(=O)N[C@@H](CCC(=O)O)C(=O)O)cc3)cc2c(=O)[nH]1 :: -1

INPUT: Look up the recorded call for Nc1cc(C=Cc2ccc([N+](=O)[O-])s2)nc2ccccc12 in this test.
OUTPUT: 1

INPUT: Look up the recorded call for CN(C)C(=O)CC(=O)NCc1cccc(Cl)c1 in this test.
OUTPUT: -1

INPUT: Look up the recorded call for COc1cc(-c2nc(-c3ccccc3)c(-c3ccccc3)[nH]2)cc(OC)c1O in this test.
OUTPUT: -1

* * *

Assay: differential killing of epithelial or mesenchymal cells, primary screen, imaging, PC-3E GFP, TEM4-18 mCherry, co-culture (AID 1345086);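 also: cells exposed to compound for 72 h before imaging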
Conditions: imaging cell counts, measured here: mesenchymal TEM4-18 mCherry cell survival, at 1 µM
Response field label: string, one of true (1) (normalised cell number strictly below 1) or false (0).

INPUT: Is the reported normalised cell number for COc1cccc2c1C(=O)c1c(O)c3c(c(O)c1C2=O)C[C@@](O)(C(=O)CO)C[C@@H]3O[C@H]1C[C@H](N)[C@@H](O)[C@H](C)O1 strictly below 1?
OUTPUT: true (1)

INPUT: Is the reported normalised cell number for COC1=CC[C@@]2(C)[C@@](O)(CC[C@H]3Cc4c([nH]c5ccccc45)[C@@]32C)[C@@]12CC(=O)[C@](O)(C(C)(C)OC(C)=O)O2 strictly below 1?
OUTPUT: false (0)

INPUT: Is the reported normalised cell number for C=C1[C@@H](C)C2[C@H](Cc3c[nH]c4ccccc34)NC(=O)[C@]23C(=O)/C=C/[C@H](O)C(=O)/C(C)=C/[C@@H](C)C/C=C/[C@H]3[C@@H]1O (some centres not stated) strictly below 1?
OUTPUT: false (0)

INPUT: Is the reported normalised cell number for CN(C)CC(c1ccc(O)cc1)C1(O)CCCCC1 (configuration not stated) strictly below 1?
OUTPUT: true (1)

INPUT: Is the reported normalised cell number for CC(C)c1c(C(=O)c2ccccc2)c(-c2ccccc2)c(-c2ccc(F)cc2)n1CC[C@@H](O)C[C@@H](O)CC(=O)O strictly below 1?
OUTPUT: false (0)

INPUT: Is the reported normalised cell number for CCCc1nc(C(C)(C)O)c(C(=O)O)n1Cc1ccc(-c2ccccc2-c2nn[nH]n2)cc1 strictly below 1?
OUTPUT: false (0)

INPUT: Is the reported normalised cell number for C[C@]12CCC3c4ccc(O)cc4C[C@@H](CCCCCCCCCS(=O)CCCC(F)(F)C(F)(F)F)C3C1CC[C@@H]2O (some centres not stated) strictly below 1?
OUTPUT: false (0)

* * *

Overview of reported growth inhibition across a group of compounds:
Experiment: antimalarial activity against Dd2 strain (AID 2302);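 also: 0% = DMSO untreated growth and 100% = chloroquine plus artemisinin killed control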
Conditions: P. falciparum Dd2 in RBCs, LDH growth readout, 72 h; at 2 µM; stronger effect = higher value
Reply with just the number (in %).

// worked examples, growth inhibition included
O=C(NCCc1ccccc1F)c1cc(Br)cc(N2CCN(c3ccncc3)CC2)c1 :: 67
CC1CCCN(C(=O)C(C)Nc2cc(Cl)ccc2N2CCOCC2)C1 (centres undefined) :: 96
O=C(Nc1ccc(Cl)cc1)Nc1ccc(-c2cccc(-c3nc4ccc(F)cc4[nH]3)c2)cc1 :: 96

INPUT: Output growth inhibition of Cc1cccc(C)c1NC1=NC(=S)N(c2cccc(Cl)c2)C12CCC(C(C)(C)C)CC2 (centres undefined)
OUTPUT: 53

INPUT: Output growth inhibition of CN(C)S(=O)(=O)n1ccc2c3c(N)nc(N)nc3ccc21
OUTPUT: -3

INPUT: Output growth inhibition of Cc1ccc(-c2nc3ccc(C(=O)NC4CCN(Cc5ccccc5)CC4)cc3[nH]2)cc1
OUTPUT: 53

INPUT: Output growth inhibition of O=C(Nc1ccc(-c2nc3ccccc3[nH]2)cc1)c1cccc(S(=O)(=O)N2CCCC2)c1
OUTPUT: 64

INPUT: Output growth inhibition of O=C(Nc1ccc(-c2ccc(-c3nc4ccc(C(F)(F)F)cc4[nH]3)s2)cc1)c1cnc[nH]1
OUTPUT: 61

INPUT: Output growth inhibition of Cn1c(Nc2cc(C(C)(C)C)on2)nc2cc(Nc3ccnc(Nc4cccc(CS(C)(=O)=O)c4)n3)ccc21
OUTPUT: 94
